Each recorded value in this set is attributed to patent US20180057596A1.

target_or_test_system: T1, human IL-4Rα on TF-1 cells (human, UniProt P24394 26-825)
T1 sequence (looked up): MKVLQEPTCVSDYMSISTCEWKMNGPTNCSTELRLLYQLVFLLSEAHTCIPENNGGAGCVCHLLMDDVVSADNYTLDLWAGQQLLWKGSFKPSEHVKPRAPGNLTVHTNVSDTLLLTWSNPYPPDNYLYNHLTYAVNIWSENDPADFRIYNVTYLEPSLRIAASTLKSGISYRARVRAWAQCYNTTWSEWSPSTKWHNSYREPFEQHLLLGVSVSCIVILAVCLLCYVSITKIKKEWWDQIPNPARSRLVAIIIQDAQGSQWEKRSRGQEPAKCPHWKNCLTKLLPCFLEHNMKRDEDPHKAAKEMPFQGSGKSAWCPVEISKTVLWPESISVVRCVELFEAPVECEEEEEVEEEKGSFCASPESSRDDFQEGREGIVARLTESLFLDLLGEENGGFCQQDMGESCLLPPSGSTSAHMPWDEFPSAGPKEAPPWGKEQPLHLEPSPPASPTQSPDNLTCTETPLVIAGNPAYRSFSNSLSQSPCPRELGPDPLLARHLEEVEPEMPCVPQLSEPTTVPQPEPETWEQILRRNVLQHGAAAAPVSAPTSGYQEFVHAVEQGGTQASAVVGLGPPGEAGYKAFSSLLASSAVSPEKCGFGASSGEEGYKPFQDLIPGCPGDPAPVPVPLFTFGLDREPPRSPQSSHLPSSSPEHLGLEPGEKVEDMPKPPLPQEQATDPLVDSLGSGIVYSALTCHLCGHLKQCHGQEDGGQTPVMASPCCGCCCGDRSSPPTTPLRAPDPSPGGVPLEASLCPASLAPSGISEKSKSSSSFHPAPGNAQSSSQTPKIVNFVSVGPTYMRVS
method: cell-based or functional assay
Listing of entries alongside the reported IC50 (pM), IL-4 induced TF-1 cell proliferation.
Note: unit pM is implicit; provide only the numeric part.

Dear colleague, I am looking for the recorded IC50 (pM), IL-4 induced TF-1 cell proliferation of the following binder: Antibody 13 IgG (antibody, V domains shown) VH: QVQLVQSGAEVKKPGASVKVSCKASGYAFTSYYMHWARQAPGQGLEWMGIINPSGGSTSYAQKFQGRVTMTRDTSTSTVYMELSSLRSEDTAVYYCARGKWWLYDWGKGTLVTVSS VL: QSVLTQPPSVSAAPGQKVTISCSGGSSNIGNSYVSWYQQLPGTAPKLLIYDNNKRPSGIPDRFSGSKSGTSATLAITGLQTGDEADYYCGTWDTSTTLQPLFGTGTKLTVL
15.7

# query: IC50 (pM), IL-4 induced TF-1 cell proliferation of entry Antibody 19 IgG (antibody, V domains shown) VH: QVQLVQSGAEVKKPGASVKVSCKASGYAFTSYYMHWARQAPGQGLEWMGIINPSGGSTSYAQKFQGRVTMTRDTSTSTVYMELSSLRSEDTAVYYCARGKWWWQHWGKGTLVTVSS VL: QSVLTQPPSVSAAPGQKVTISCSGGSSNIGNSYVSWYQQLPGTAPKLLIYDNNKRPSGIPDRFSGSKSGTSATLAITGLQTGDEADYYCGTWDTSTTYHPIFGTGTKLTVL
7.6

# get_value(readout='IC50 (pM), IL-4 induced TF-1 cell proliferation', item= Antibody 2 IgG (antibody, V domains shown) VH: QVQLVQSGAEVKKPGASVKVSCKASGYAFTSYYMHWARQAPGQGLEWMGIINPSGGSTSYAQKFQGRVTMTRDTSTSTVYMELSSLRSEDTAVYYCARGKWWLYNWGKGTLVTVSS VL: QSVLTQPPSVSAAPGQKVTISCSGGSSNIGNSYVSWYQQLPGTAPKLLIYDNNKRPSGIPDRFSGSKSGTSATLAITGLQTGDEADYYCGTWDTSQPPNPLFGTGTKLTVL )
41.7
